Origin of the recorded values: patent US10703764B2

IC50 values, listed per item
Target Or System: BRD4 BD1 (Homo sapiens)
Test Description: AlphaScreen binding assay, BRD4 Bromodomain 1

Examples with their reported IC50 follow.
INSERT INTO measurements (molecule, measurement_label, measured_result) VALUES
  ('CC(=O)N1c2ccc(-c3ccc(C(F)(F)F)cc3)cc2N(C(=O)c2ccco2)C[C@@H]1C', 'IC50', '1000 to 10000 nM'),
  ('CC(C)OC(=O)N1C[C@H](C)N(C(=O)C2CC2)c2ccc(-c3cnn(CCO)c3)cc21', 'IC50', '100 to 1000 nM'),
  ('CC(=O)Nc1ccc2c(c1)N(C(C)=O)[C@@H](C)CN2C(=O)OC(C)C', 'IC50', '1000 to 10000 nM');

# next molecule below
Entry COC(=O)N1c2ccc(-c3cnn(Cc4c[nH]cn4)c3)cc2N(C(=O)OC(C)C)CC1C (stereo not shown) : IC50 on BRD4 BD1 (Homo sapiens) = 100 to 1000 nM
